Entry source: paper PMC10397247

# targetOrSystem: T1, 4H3298-bN
# T1 chain: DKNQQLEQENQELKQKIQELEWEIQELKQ
# runDescription: two-hybrid library CCNG1;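 further: natural log of median RNA to DNA barcode read ratio; higher means stronger binding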
hey, just use T if measured interaction score is less than -0.8, otherwise F

Use these answered entries as a reference point.
binder="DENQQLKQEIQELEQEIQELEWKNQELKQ [4H1544-bN]" assignedcategory=F
binder="DKNQQLEQENQELKQKIQELEWEIQELKQ [4H3298-bN]" assignedcategory=T
binder="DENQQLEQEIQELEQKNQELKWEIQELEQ [4H1081-bN]" assignedcategory=T
binder="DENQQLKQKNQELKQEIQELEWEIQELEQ [4H1985-bN]" assignedcategory=F
binder="DKNQQLEQEIQELKQKIQELEWKNQELEQ [4H3175-bN]" assignedcategory=F

Asked: Below -0.8 on interaction score? Entry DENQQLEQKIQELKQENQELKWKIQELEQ [4H1373-bN]
Given back: F

Asked: Below -0.8 on interaction score? Entry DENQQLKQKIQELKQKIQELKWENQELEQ [4H1899-bN]
Given back: F
